// reported solution mAb binding, % of PRLR binding per item
# Target Under Test: T1, human PRLR (Biacore antigen) (human, UniProt P16471 25-234, limits assumed)
# T1 construct: The construct injected over captured antibody is not described (a soluble form is likely); also called huPRLR
# T1 sequence: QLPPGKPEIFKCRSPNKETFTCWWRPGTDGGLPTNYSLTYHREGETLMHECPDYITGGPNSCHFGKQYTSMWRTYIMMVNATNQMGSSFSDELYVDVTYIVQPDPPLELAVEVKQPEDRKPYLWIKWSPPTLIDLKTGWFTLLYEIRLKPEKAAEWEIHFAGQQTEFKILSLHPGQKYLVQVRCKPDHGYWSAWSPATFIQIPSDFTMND
# Protocol Details: SPR simultaneous binding; PRLR held by surface mAb Ab49

Binder: Ab48 (antibody, human IgG1, kappa, V domains shown, humanized from Ab8; G1; also called Ab3 HC.1a and Ab3 LC.1a) VH: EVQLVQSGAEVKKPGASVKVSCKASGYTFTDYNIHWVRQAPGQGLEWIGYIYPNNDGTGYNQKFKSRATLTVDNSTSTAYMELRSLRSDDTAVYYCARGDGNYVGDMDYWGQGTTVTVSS VL: DIQMTQSPSSLSASVGDRVTITCRASENIYSYLAWYQQKPGKPPKLLVYNAKTLAEGVPSRFSGSGSGTDFTLTISSLQPEDFATYYCQHHYATPFTFGQGTKLEIKR
Unit Descriptor: %
solution mAb binding, % of PRLR binding: -2

Binder: chAb6 (antibody, human IgG1, kappa, V domains shown, chimeric, murine variable and human G1/kappa constant regions) VH: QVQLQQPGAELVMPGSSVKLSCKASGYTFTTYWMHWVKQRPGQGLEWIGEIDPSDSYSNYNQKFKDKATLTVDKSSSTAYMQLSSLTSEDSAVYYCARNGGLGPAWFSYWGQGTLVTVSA VL: DIVMTQSQKFMSTTVGDRVSITCKASQYVGTAVAWYQQKPGQSPKLLIYSASNRYTGVPDRFTDSGSGTDFTLTISNLQSEDLADYFCQQYSSYPWTFGGGTKLEIKT
Unit Descriptor: %
solution mAb binding, % of PRLR binding: 0

Binder: Ab19 (antibody, human IgG1, kappa, V domains shown, humanized from Ab6; G1; also called Ab1 HC.1a and Ab1 LC.1a) VH: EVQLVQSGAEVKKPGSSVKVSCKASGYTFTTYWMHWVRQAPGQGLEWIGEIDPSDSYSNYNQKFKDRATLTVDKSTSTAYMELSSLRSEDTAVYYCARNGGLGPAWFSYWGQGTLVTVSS VL: DIQMTQSPSSVSASVGDRVTITCKASQYVGTAVAWYQQKPGKSPKLLIYSASNRYTGVPSRFSDSGSGTDFTLTISSLQPEDFATYFCQQYSSYPWTFGGGTKVEIKR
Unit Descriptor: %
solution mAb binding, % of PRLR binding: 1
